- Tested on: SK-MEL-2 melanoma
- MEASUREMENT_NOTES: NCI-60 one-dose screen, 48 h
- STATED_CONDITIONS: 10 µM unless noted
This is part of a sample that, as a whole, favours compounds with a hit. Of some 83,000 tested, about 20% had one in any assay. Activity calls are given as the source filed them. How the source made its calls: active means growth percent below 10; inactive means the rest.
Answer with one of the outcomes y (active), n (inactive)

Example entries and their recorded answers appear below.
| COMPOUND | TEST_SYSTEM | QUALITATIVE_LABEL |
| --- | --- | --- |
| CC12CCC(=O)C=C1CCC1C2CCC2(C)C(C(=O)COC(=O)Cc3ccc(N(CCCl)CCCl)cc3)CCC12 (stereo not drawn) | SK-MEL-2 melanoma | n |
| CC(=O)[O][Hg][c]1nc2c(c(=O)n(C)c(=O)n2C)n1C | SK-MEL-2 melanoma | n |
| O=C(O)C1(Br)CC12c1ccccc1-c1ccccc12 (stereo not drawn) | SK-MEL-2 melanoma | n |
| Cc1ccc(C(=O)C2CN(C)CCC2(O)c2ccc(C)cc2)cc1 (stereo not drawn) | SK-MEL-2 melanoma | n |
| CC(C)OC(=S)[S-].[Au+].c1ccc([PH+](c2ccccc2)c2ccccc2)cc1 | SK-MEL-2 melanoma | n |
| CC1(C)N=C(N)N=C(N)N1c1ccc(OCCCCNC(=O)c2ccc(S(=O)(=O)F)cc2)c(Cl)c1 | SK-MEL-2 melanoma | n |

Query: recorded result category for C#CC1(O)CCC2(C)C(CCC3C4CCC(=O)C4(C)CCC32)C1 (stereo not drawn) in this test
n
